For each entry below, report its Inhibition of PAD2: value at 80 µM inhibitor (0 µM: 76) value.
biological target: recombinant human PAD2 (human, UniProt Q9Y2J8 1-665); experiment: cell-based or functional assay
Sequence (Q9Y2J8 whole entry): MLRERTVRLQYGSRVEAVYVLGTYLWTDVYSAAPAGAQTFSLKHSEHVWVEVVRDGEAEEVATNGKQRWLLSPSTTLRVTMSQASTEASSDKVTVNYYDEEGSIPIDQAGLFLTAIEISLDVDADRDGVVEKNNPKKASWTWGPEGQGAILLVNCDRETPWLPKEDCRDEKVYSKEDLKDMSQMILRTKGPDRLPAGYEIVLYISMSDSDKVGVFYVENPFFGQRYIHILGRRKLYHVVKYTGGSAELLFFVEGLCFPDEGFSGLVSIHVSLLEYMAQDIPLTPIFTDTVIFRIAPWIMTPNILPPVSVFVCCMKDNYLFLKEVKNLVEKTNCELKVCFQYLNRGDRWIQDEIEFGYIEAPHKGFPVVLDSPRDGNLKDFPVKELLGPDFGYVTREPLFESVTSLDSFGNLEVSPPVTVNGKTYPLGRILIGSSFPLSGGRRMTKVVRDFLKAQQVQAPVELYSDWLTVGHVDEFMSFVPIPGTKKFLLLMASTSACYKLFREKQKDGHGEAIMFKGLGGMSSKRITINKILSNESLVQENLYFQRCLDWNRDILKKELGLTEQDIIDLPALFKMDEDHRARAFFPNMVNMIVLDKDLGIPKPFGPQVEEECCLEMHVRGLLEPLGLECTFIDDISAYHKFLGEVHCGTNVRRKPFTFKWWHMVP
Square brackets hold non-standard residues; d marks the D form. * marks the point of attachment. Orn(fluoroacetimidoyl) = N=C(CF)NCCC[C@H](N)C(=O)O; 2Naphthylsulfonyl = O=S(=O)(c1ccc2ccccc2c1)*; AEEA = NCCOCCOCC(=O)O
# number only, unit % dropped from output

Lab note: 2Naphthylsulfonyl-KWH[Orn(fluoroacetimidoyl)]DFF[AEEA]-NH2 (SMILES N=C(CF)NCCC[C@H](NC(=O)[C@H](Cc1c[nH]cn1)NC(=O)[C@H](Cc1c[nH]c2ccccc12)NC(=O)[C@H](CCCCN)NS(=O)(=O)c1ccc2ccccc2c1)C(=O)N[C@@H](CC(=O)O)C(=O)N[C@@H](Cc1ccccc1)C(=O)N[C@@H](Cc1ccccc1)C(=O)NCCOCCOCC(N)=O) [0837-28FA] gave Inhibition of PAD2: value at 80 µM inhibitor (0 µM: 76) of 2

Lab note: Ac-KWH[Orn(fluoroacetimidoyl)]DFF-NH2 (SMILES CC(=O)N[C@@H](CCCCN)C(=O)N[C@@H](Cc1c[nH]c2ccccc12)C(=O)N[C@@H](Cc1c[nH]cn1)C(=O)N[C@@H](CCCNC(=N)CF)C(=O)N[C@@H](CC(=O)O)C(=O)N[C@@H](Cc1ccccc1)C(=O)N[C@@H](Cc1ccccc1)C(N)=O) [0748-09FA] gave Inhibition of PAD2: value at 80 µM inhibitor (0 µM: 76) of 4

Lab note: 2Naphthylsulfonyl-KWH[Orn(fluoroacetimidoyl)]DFF-NH2 (SMILES N=C(CF)NCCC[C@H](NC(=O)[C@H](Cc1c[nH]cn1)NC(=O)[C@H](Cc1c[nH]c2ccccc12)NC(=O)[C@H](CCCCN)NS(=O)(=O)c1ccc2ccccc2c1)C(=O)N[C@@H](CC(=O)O)C(=O)N[C@@H](Cc1ccccc1)C(=O)N[C@@H](Cc1ccccc1)C(N)=O) [0837-30FA] gave Inhibition of PAD2: value at 80 µM inhibitor (0 µM: 76) of 1

Lab note: Ac-KWH[Orn(fluoroacetimidoyl)]DFF[AEEA]-NH2 (SMILES CC(=O)N[C@@H](CCCCN)C(=O)N[C@@H](Cc1c[nH]c2ccccc12)C(=O)N[C@@H](Cc1c[nH]cn1)C(=O)N[C@@H](CCCNC(=N)CF)C(=O)N[C@@H](CC(=O)O)C(=O)N[C@@H](Cc1ccccc1)C(=O)N[C@@H](Cc1ccccc1)C(=O)NCCOCCOCC(N)=O) [0837-14FA] gave Inhibition of PAD2: value at 80 µM inhibitor (0 µM: 76) of 8
